tgt: Human Cbl-b (residues 40-426) (Homo sapiens (Human), UniProt Q13191)
Sequence (Q13191 40-426): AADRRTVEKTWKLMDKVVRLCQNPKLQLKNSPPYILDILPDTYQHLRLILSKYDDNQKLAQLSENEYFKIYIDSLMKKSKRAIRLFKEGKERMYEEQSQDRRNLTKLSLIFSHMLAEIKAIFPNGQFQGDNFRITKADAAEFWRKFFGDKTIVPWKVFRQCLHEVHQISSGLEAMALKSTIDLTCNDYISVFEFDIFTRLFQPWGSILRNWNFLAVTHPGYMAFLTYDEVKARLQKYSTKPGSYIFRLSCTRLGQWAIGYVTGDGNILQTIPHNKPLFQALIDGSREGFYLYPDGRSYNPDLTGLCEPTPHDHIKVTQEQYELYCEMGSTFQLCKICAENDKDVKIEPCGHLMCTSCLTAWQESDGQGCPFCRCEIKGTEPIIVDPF
method notes: Cbl-b SPR assay
Assay type: binding
protocol conditions: C-cbl SPR Kd vs Cbl-b SPR Kd
property: Fold of selectivity

Endpoint output: Fold of selectivity of Cn1cnnc1[C@H](c1cc(Cl)cc(N2Cc3c(cc(CNC4(C)CCC4)cc3C(F)(F)F)C2=O)c1)C1COC1 (single isomer, unassigned) . Value? 1.4×

Fill in the blank: the reported Fold of selectivity of Cn1cnnc1[C@@H](c1cccc(N2Cc3c(cc(CNC4(C)CCC4)cc3C(F)(F)F)C2=O)c1)C1CC1 (single isomer, unassigned) is ____. 2.4×

Tell me the measured Fold of selectivity of Cn1cnnc1[C@H](C[C@H]1COCCO1)c1cccc(N2Cc3c(cc(CNC4(C)CCC4)cc3C(F)(F)F)C2=O)c1 , please. 1.3×

Quick one: Fold of selectivity for Cn1cnnc1[C@]1(c2cccc(N3Cc4c(cc(CNC5(C)CCC5)cc4C(F)(F)F)C3=O)c2)C[C@@H](OCC#N)C1 ? 6.3×

Entry under review: Cn1cnnc1[C@]1(c2cc(OC3CCCC3)cc(N3Cc4c(cc(CNC5(C)CCC5)cc4C(F)(F)F)C3=O)c2)C[C@H](C)C1 . Reported Fold of selectivity? 5.2×

What measured Fold of selectivity goes with Cn1cnnc1[C@@H](c1cccc(N2Cc3c(cc([C@@H](NC4(C)CCC4)C4CCC4)cc3C(F)(F)F)C2=O)c1)C1COC1 (single isomer, unassigned) ? 10×
